Every entry's value here was drawn from patent US5607944A.

# experimentalSystem: human thrombocytes
# runDescription: Inhibition of binding of ^3 H-BIBU 52 to human thrombocytes (competitive binding)
# conditionsUsed: human platelet-rich plasma diluted 1:10; 5 nM ^3 H-BIBU 52; 20 minutes, ambient temperature; read-out: Competitive binding of ^3 H-BIBU 52/test substance to human thrombocytes IC50
readoutType: pIC50
Conceptually, pIC50 converts a concentration in mol/L into minus its log10.

Solved entries (count: 8):
COC(=O)[C@H]1CC[C@H](NC(=O)N2CCC(c3nc4c(s3)CCNCC4)CC2)CC1 = 5.85
O=C(N[C@H]1CC[C@H](C(=O)O)CC1)c1ccc(-c2nc3c(s2)CCNCC3)cc1.O=C(O)C(F)(F)F = 7.12
Cc1cc(C(=O)N[C@H]2CC[C@H](C(=O)O)CC2)ccc1-c1nc2c(s1)CNCC2 = 7.62
COC(=O)[C@H]1CC[C@H](NC(=O)c2ccc(-c3nc4c(s3)CNCC4)c(C)c2)CC1 = 6.35
CC(C)OC(=O)[C@H]1CC[C@H](NC(=O)N2CCC(c3nc4c(s3)CCNCC4)CC2)CC1 = 5.82
O=C(N[C@H]1CC[C@H](C(=O)O)CC1)N1CCC(c2nc3c(s2)CCNCC3)CC1 = 7.38
O=C(N[C@H]1CC[C@H](C(=O)O)CC1)c1ccc(-c2nc3c(s2)CNCC3)cc1.O=C(O)C(F)(F)F = 7.02
O=C(O)CC1CCN(C(=O)c2ccc(-c3nc4c(s3)CNCC4)cc2)CC1 = 6.68

pIC50 measured on `O=C(O)[C@H]1CC[C@H](NC(=O)[C@H]2CC[C@H](c3nc4c(s3)CCNCC4)CC2)CC1` = 6.92

pIC50 measured on `O=C(N[C@H]1CC[C@H](C(=O)O)CC1)N1CCC(c2nc3c(s2)CNCC3)CC1` = 7.51

pIC50 measured on `CN1CCc2nc(C3CCN(C(=O)N[C@H]4CC[C@H](C(=O)O)CC4)CC3)sc2CC1` = 5.70

pIC50 measured on `CC(C)COC(=O)[C@H]1CC[C@H](NC(=O)N2CCC(c3nc4c(s3)CCNCC4)CC2)CC1` = 5.80

pIC50 measured on `CCOC(=O)[C@H]1CC[C@H](NC(=O)N2CCC(c3nc4c(s3)CCNCC4)CC2)CC1` = 5.89

pIC50 measured on `O=C(N[C@H]1CC[C@H](C(=O)O)CC1)c1ccc(-c2nc3cnccc3[nH]2)cc1` = 5.68
